# procedureSummary: protein stability index of a GFP-peptide fusion (GPS, HEK-293T) (PSI 1-6); higher = more stable;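 also: 24-mer peptide tiles fused after GFP, lentivirally expressed, FACS-sorted into six equal bins by GFP/DsRed ratio, decoded by Illumina sequencing, PSI is the read-weighted mean bin number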
# statedConditions: treatment: MLN4924 1 uM, 8 h; c terminus: a fixed tail appended
experimentalEndpoint: protein stability index
// no unit string in output, number only

Give protein stability index for HCTGNEATLAACTSNGWGVTDCKH [LOXL2]
4.21

Give protein stability index for MAQPLCIRALLNLHTDVGSVRMRR [NEK8]
2.58

Give protein stability index for DDSSSESGSGNGSSTLNPSTSSST [NOL4L]
5.49

Give protein stability index for FSTRALVLSILHATLPGIFMLLLI [SOAT2]
3.37

Give protein stability index for IKLIDFGIAHKIEAGNEFKNIFGT [DAPK3]
2.32

Give protein stability index for SLKAKVSDNMSHLMVDFAQERQML [FSD1]
3.31

Give protein stability index for ISTSGQAGTSSHGCWAWPLAGLSV [PXN]
2.25

Give protein stability index for LCRAQRERLASANLRVLVDCILRD [TEKT4]
2.41

Give protein stability index for QAQDEVEQERRLSEARLSQRDLSP [FCHSD1]
5.31

Give protein stability index for EGASSQIGRAAGTGFTVNVAWNGP [HDAC6]
3.38

Give protein stability index for FLFNSELLSDVRFVLGKGRGAAAA [BTBD1]
2.33

Give protein stability index for IEIEDEAEKWQKEKDRIKSFTTNE [TRIM29]
4.96

Give protein stability index for VKDDDRLTFHRHPVAQSTDGIRGK [SPSB4]
4.83

Give protein stability index for HPGEHEVGEPEFHYIAGAHGNEVL [CPXM2]
4.98

Give protein stability index for TSDGYTALHLAARNGHLATVKLLV [RIPK4]
2.25

Give protein stability index for WLHCVCVVGFDLELGQAVEVIYPQ [DENND6A]
2.46

Give protein stability index for APMDAPRYQHGIAVIGNFLYVVGG [KLHL13]
2.25

Give protein stability index for TSKCGSLKNIRHRPGGGRVKIESV [MAP2]
3.3

Give protein stability index for PKTVPSHVFSELWDLSEAWMQANY [ELOA2]
2.56

Give protein stability index for SSPSVSGPRRLVSCLSSQSSALSQ [SPACA3]
3.52

Give protein stability index for VVGAKKIYAHRVILSACSPYFRAM [KLHL20]
2.41

Give protein stability index for GPGGRRAGEPGHSPADYLRFQDLV [DYRK1B]
3.27

Give protein stability index for GAFPPRGPRPVQSVVPEMEESGAQ [CDK4]
5.23

Give protein stability index for LSWYRGRRPRTAFTQNQIEVLENV [HESX1]
3

Give protein stability index for GGYTPDLKMSYSRGLIPVKRGPSS [RBMY1A1]
3.8

Give protein stability index for AVVAVDRQAIFPDTWTLTEEHGLQ [PXN]
3.35

Give protein stability index for TYLRLIVDHHGTAQLQALRQKEVD [INTS3]
2.35

Give protein stability index for NIQVTGSAALFYLTNSEYRSEQSV [ZER1]
2.84

Give protein stability index for CRRCYDWIHRPGCRCKNSNTVYCK [SPRY1]
3.05

Give protein stability index for TESEIESETDFETEPETAPTTEPE [GNAS]
5.68

Give protein stability index for IDKGDIPDLTQAPSSLMETLEQHL [SNAP91]
4.08

Give protein stability index for WRYVSSLPQPLAAHAGAVHNGKIY [KLHL14]
2.73

Give protein stability index for CIYSEVMEALDLQPGLSFLNLGSG [PCMTD2]
2.33

Give protein stability index for TGQSKIYSYMSPNKCSGMRFPLQE [KMT5A]
2.27

Give protein stability index for MWLTPLHRAVASRSEEAVQVLIKH [ANKRD44]
2.45

Give protein stability index for IFRSYSRGAQGILLVYDITNRWSF [RAB40C]
2.61

Give protein stability index for TKLQAQHVSYRELGACVRTAVAQG [SLC25A39]
3.29

Give protein stability index for RGEGIQAPSFSSYLYFLFCPTLIY [SOAT2]
3.36

Give protein stability index for KSVQHVVLQALFYLLDRAVDSFET [PTPN9]
2.58

Give protein stability index for VTRQPRNLQDLCRIKIRQCIGLQN [ASB7]
3.35

Give protein stability index for KENQDIRLLQAQLQAQKEELQSLM [PBXIP1]
4.14

Give protein stability index for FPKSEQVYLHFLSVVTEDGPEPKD [ZNF232]
3.39

Give protein stability index for REHCPENRERVVSLIEDLQRELEI [ZNF449]
4

Give protein stability index for KCSDCGKAFLTKTMLIVHHRTHTG [ZNF649]
3.05

Give protein stability index for RNLETQHKVLELTAENERLQKKVE [CEBPB]
5.49

Give protein stability index for RDEVAFHTAKCEKLQKEKEELERR [MTUS2]
5.44

Give protein stability index for AKQQKFIKAVTHQVKFGQQNPRQV [ZC3H15]
3.4

Give protein stability index for NKQTLSSGEKYDPDANTWTALPPM [GAN]
4.03

Give protein stability index for REQADSCREQLDIMNDLSNRVWSI [TRIM14]
2.28

Give protein stability index for KNLLHAEFLRVQEERILHQQVKCI [VPS39]
2.71

Give protein stability index for PRIVEMKKGSNGYGFYLRAGSEQK [PDZK1]
3.65

Give protein stability index for KIWRTPNGKTIEMDTQFTIRAREL [IQUB]
2.66

Give protein stability index for RRKEYDALKAAKREQEKKPKKEAN [LRRC59]
5.17

====

# procedureSummary: protein stability index of a GFP-peptide fusion (GPS, HEK-293T) (PSI 1-6); higher = more stable
# statedConditions: treatment: DMSO; c terminus: a fixed tail appended
experimentalEndpoint: protein stability index
// no unit string in output, number only

Give protein stability index for LYLRVELSDVQNPAISITENVLHF [HACD3]
2.82

Give protein stability index for TSFIRGPNPSKVLQQLLVLQPEQQ [CDS1]
3.37

Give protein stability index for LEGALHQAKEELARMLREYQELMS [KRT71]
2.98

Give protein stability index for AEEIRIKGKYNISSEDYRQLELVI [KCNK9]
2.25

Give protein stability index for EHLDNLRLNLTNTKQNFFSQTPIL [INTS3]
2.35

Give protein stability index for PRIVEMKKGSNGYGFYLRAGSEQK [PDZK1]
3.53

Give protein stability index for EPLFEAGDATLASDLQDWASVGAF [FOXJ1]
3.85

Give protein stability index for SDGSCKTAGEMVFVYENAKEGARN [BTBD10]
4.31

Give protein stability index for VNQYVIRPGPSASAASSAAAGEPL [RNF208]
3.88

Give protein stability index for QLKIRKSNQIPTEVRSKAEEVVSF [FUNDC2]
3.9

Give protein stability index for IQENQRNLYEEGRTAFLWRGNVVL [TRIM43]
2.21

Give protein stability index for GGLMARPEYREWNPELIKPKKLLN [FAM107A]
3.68

Give protein stability index for IEIEDEAEKWQKEKDRIKSFTTNE [TRIM29]
4.94

Give protein stability index for DRKGYMFDYEYDWIGKQLPTPVGA [CSNK1G3]
2.55

Give protein stability index for AVLEYLYTGMFTSSPDLDDMKLII [RHOBTB2]
2.68

Give protein stability index for KTVDKHSDEYKIRRERNNIAVRKS [CEBPB]
4.59

Give protein stability index for QIITSLVFHLPFYSSNQLHHFFCD [OR10K2]
2.8

Give protein stability index for KTTIPEEEEEEEEAAGVVVEEELF [LMNB1]
5.55

Give protein stability index for PDLNILEDSAESRPWRAGVLAEGD [PSD2]
4.87

Give protein stability index for DQLAFIEELFSLMVVNRLTEELGC [EID1]
3.01

Give protein stability index for QMPKFDLGPLLSEPLVLYNQNLSN [MYOZ1]
3.15

Give protein stability index for EEREKEAAEQAERSQSSIVPEEEQ [SMARCE1]
5.62

Give protein stability index for RLVSSPCCIVTSTYGWTANMERIM [HSP90AB1]
2.86

Give protein stability index for GDFEEAFDHLQNRLIATKNPEEIR [TENT5C]
5.16

Give protein stability index for NLINQMLTINPAKRITAHEALKHP [CAMK2B]
2.38

Give protein stability index for LPSNLVQYYDDEKKTWKILTIMPY [KLHL14]
2.42

Give protein stability index for DNLLPGMQPSKPQQPSLNTMIQQQ [CLINT1]
4.38

====

# procedureSummary: protein stability index of a GFP-peptide fusion (GPS, HEK-293T) (PSI 1-6); higher = more stable
# statedConditions: treatment: DMSO; c terminus: a fixed tail appended
So I've got a bunch of sequences here, and I need their protein stability index values.

Give protein stability index for KMKKLGQAMEEDLIVGLQGMDLNL [HDAC6]
3.86

Give protein stability index for KRVYEEFTKVVQPQEEIATKKLRL [INTS4]
3.31

Give protein stability index for RQQRLNQLEKPPEKEEDHAPEFIK [FAM107A]
5.33

Give protein stability index for DYGRKAEELLWRKVYYEVIQLIKT [SMG5]
2.71

Give protein stability index for METSASSSQPQDNSQVHRETEDVD [TMEM40]
5.54

Give protein stability index for EGSGHSTGEDSAFQEPDSPLPPAR [WEE1]
5.48

Give protein stability index for GDDGIVVVWNAQTGEKLLELNGHT [WDR41]
3.39

Give protein stability index for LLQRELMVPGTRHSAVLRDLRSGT [TNXB]
2.43

Give protein stability index for PVVKALFGASAAGGLSPVTNLTVT [CDC25A]
2.61

Give protein stability index for QARAELTAQHQRRLAAIAQEKDQE [FBF1]
5.43

Give protein stability index for EVEKRGINGSEGDGAEIAEKFVFF [DYNC2LI1]
3.8

Give protein stability index for NGFPDSTGDPLPEISKDNSCKENC [EDARADD]
5.2

Give protein stability index for MPPKFKRHLNDDDVTGSVKSERRN [VAMP4]
4.79
